inhibition overview
- assayed target: RAC-gamma serine/threonine-protein kinase (Homo sapiens) (UniProt Q9Y243)
- Sequence (Q9Y243 whole entry): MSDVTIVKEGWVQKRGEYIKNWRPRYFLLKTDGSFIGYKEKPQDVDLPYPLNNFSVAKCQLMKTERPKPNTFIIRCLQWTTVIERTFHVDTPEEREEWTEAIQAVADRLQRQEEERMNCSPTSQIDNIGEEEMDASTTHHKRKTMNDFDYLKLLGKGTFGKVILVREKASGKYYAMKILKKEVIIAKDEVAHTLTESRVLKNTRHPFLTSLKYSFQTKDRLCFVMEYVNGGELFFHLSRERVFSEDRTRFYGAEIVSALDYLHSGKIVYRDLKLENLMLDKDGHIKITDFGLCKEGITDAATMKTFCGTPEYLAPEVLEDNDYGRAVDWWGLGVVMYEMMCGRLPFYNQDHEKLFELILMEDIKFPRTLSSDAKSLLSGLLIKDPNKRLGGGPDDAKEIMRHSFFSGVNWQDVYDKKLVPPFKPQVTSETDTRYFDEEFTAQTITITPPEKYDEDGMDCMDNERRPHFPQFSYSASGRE
- measurement context: at 1 µM
- Description: GSK_PKIS: AKT3 mean inhibition at 1 uM [Nanosyn]
measured parameter: inhibition (%)

Nc1nccc(-c2c(-c3ccc(F)cc3)nn3cc(C(F)(F)F)ccc23)n1 : -5.93
ON=C1CCc2cc(-c3nc(C4CCNCC4)[nH]c3-c3ccncc3)ccc21 : 0.98
Cc1ccc(C(=O)NC2CC2)cc1-c1ccc2[nH]ncc2c1 : 0.95
[O-][S+]1CCN(Cc2ccc(-c3ccc4ncnc(Nc5ccc(OCc6ccccc6)c(Cl)c5)c4c3)o2)CC1 : 2.06
Nc1nccc(C#Cc2cncnc2Nc2ccc(OCc3cccc(F)c3)c(Cl)c2)n1 : 1.85
O=C1Nc2ccc(-c3cccnc3)cc2C1=Cc1cc(Br)c(O)c(Br)c1 : 1.67
N#Cc1c(NC(=O)c2ccccc2F)sc2c1CCCC2 : -0.44
Cc1ccc(NC(=O)CC2CC2)cc1-c1ccc(C(=O)NCC2CC2)cc1 : 1.65
NS(=O)(=O)c1ccc(N/N=C2\C(=O)Nc3ccc(Cl)cc32)cc1 : 1.82
Cc1cc(O)cc(C)c1/C=C/c1cncc(C(=O)N(C)C)c1 : 1.3

====

- assayed target: Serine/threonine-protein kinase PLK1 (Homo sapiens) (UniProt P53350);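 also: reported value is a mean PLK1 inhibition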
- Sequence (P53350 whole entry): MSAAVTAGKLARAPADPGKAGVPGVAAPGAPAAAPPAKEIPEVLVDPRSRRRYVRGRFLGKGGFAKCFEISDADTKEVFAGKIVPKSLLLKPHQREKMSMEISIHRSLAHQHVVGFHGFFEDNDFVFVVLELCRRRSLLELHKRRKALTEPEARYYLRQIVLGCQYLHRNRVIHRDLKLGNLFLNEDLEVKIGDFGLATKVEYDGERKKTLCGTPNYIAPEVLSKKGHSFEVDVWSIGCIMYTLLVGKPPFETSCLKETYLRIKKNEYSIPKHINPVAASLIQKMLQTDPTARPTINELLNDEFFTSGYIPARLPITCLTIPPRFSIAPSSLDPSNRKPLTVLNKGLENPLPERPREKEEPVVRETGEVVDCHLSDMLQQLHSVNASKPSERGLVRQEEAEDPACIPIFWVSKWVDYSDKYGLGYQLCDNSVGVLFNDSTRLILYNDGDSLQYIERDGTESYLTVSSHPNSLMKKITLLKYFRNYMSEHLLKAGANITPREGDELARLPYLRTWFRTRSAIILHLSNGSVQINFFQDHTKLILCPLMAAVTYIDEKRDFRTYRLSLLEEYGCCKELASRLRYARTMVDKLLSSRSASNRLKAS
- measurement context: at 1 µM
measured parameter: inhibition (%)

NS(=O)(=O)c1ccc(-c2cc3ccncc3cc2OCc2ccccc2)cc1 : 1.7
CCn1c(-c2nonc2N)nc2c(C#CC(C)(C)O)nc(OCCNC)cc21 : 8.02
Nc1ccc(C#Cc2cncnc2Nc2ccc(OCc3cccc(F)c3)c(Cl)c2)cc1 : -0.53
COc1cc(/C=N/Nc2ncnc3c2cnn3C(C)C)ccc1O : 4.86
CN(c1ccc(NC(=O)Nc2ccc(OC(F)(F)F)cc2)cc1)c1ccnc(Nc2cccc(S(N)(=O)=O)c2)n1 : -0.02
CCS(=O)(=O)c1ccc(OC)c(Nc2ncc(-c3cccc(OC)c3)o2)c1 : 1.04
O=C(Nc1ccc(Oc2ccc3[nH]c(NC(=O)c4ccco4)nc3c2)cc1)Nc1cc(C(F)(F)F)ccc1F : 1.34
OCc1ccc(-c2nc(-c3ccccn3)c(-c3ccc4c(c3)OCO4)[nH]2)cc1 : 4.3
c1ccc(Nc2ncc(-c3ccccc3)o2)cc1 : 5.42
Nc1nccc(-c2c(-c3ccc(F)cc3)nn3cc(C(F)(F)F)ccc23)n1 : 0.4

====

- assayed target: cGMP-dependent protein kinase 2 (Homo sapiens) (UniProt Q13237);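 also: mean inhibition of PRKG2 from the GSK PKIS screen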
- Sequence (Q13237 whole entry): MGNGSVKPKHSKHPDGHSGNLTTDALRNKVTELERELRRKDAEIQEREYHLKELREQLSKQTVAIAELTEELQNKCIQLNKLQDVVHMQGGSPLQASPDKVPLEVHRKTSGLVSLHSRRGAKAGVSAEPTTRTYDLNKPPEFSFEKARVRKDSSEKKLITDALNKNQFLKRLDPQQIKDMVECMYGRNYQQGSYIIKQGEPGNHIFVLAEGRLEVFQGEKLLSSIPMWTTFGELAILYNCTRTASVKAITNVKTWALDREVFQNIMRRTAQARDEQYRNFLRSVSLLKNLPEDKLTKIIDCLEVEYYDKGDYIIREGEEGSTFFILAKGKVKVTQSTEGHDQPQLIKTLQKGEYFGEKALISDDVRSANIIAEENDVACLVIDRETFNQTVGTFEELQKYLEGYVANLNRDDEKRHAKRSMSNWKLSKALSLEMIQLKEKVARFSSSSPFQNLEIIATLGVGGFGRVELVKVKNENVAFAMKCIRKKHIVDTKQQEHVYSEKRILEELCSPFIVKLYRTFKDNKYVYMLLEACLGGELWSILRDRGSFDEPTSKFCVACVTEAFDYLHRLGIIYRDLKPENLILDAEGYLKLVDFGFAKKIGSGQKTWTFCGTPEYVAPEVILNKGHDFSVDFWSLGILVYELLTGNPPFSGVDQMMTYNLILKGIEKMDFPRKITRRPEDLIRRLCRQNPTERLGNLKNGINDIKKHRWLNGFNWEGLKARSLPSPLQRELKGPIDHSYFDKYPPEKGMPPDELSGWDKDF
- measurement context: at 1 µM
measured parameter: inhibition (%)

COc1cc(Nc2nccc(-c3cnn4ncccc34)n2)cc(OC)c1 : 24.4
C[C@@H](Oc1cc(-n2cnc3ccc(OC[C@@H](O)CO)cc32)sc1C(N)=O)c1ccccc1Cl : -0.19
Nc1ccc(C#Cc2cncnc2Nc2ccc(OCc3cccc(F)c3)c(Cl)c2)cc1 : 0.99
CN(C)CCCn1c(-c2nonc2N)nc2cnccc21 : 5.66
[O-][S+]1CCN(Cc2ccc(-c3ccc4ncnc(Nc5ccc(OCc6ccccc6)c(Cl)c5)c4c3)o2)CC1 : 2.95
COc1cccc(-n2ncc3c(N/N=C/c4ccc(S(C)(=O)=O)cc4)ncnc32)c1 : 1.79
CCn1c(-c2nonc2N)nc2c(C#CC(C)(C)O)nc(OCCNC)cc21 : 70.9
NS(=O)(=O)c1cccc(Nc2cc(-c3ccc(F)cc3)n[nH]2)c1 : 6.86
COc1cc(/C=N/Nc2ncnc3c2cnn3C(C)C)ccc1O : 2.16
O=C(Nc1ccc(Oc2ccc3[nH]c(NC(=O)c4ccco4)nc3c2)cc1)Nc1cc(C(F)(F)F)ccc1F : 4.38
Cc1ccc2c(-c3ccnc(Nc4cccc(C(F)(F)F)c4)n3)c(-c3ccccc3)nn2n1 : 4.35
Cc1ccc(C(=O)NC2CC2)cc1-c1ccc2[nH]ncc2c1 : -0.47
N#Cc1c(NC(=O)c2ccccc2F)sc2c1CCCC2 : -0.91
COc1cccc(-n2ncc3c(N/N=C/c4ccc(C)cc4)ncnc32)c1 : 5.99
Cc1ccc(NC(=O)CC2CC2)cc1-c1ccc(C(=O)NCC2CC2)cc1 : 2.64
CN(C)c1cc2c(Nc3ccc4c(cnn4Cc4ccccc4)c3)ncnc2cn1 : 2.77
COc1ccc2ncnc(Nc3ccc(OCc4ccccc4)cc3)c2c1 : 2.5
COc1ccc(-c2nn3ncccc3c2-c2ccnc(Nc3cccc(C(F)(F)F)c3)n2)cc1 : 2.6
NC(=O)c1sc(-n2cnc3ccccc32)cc1OCc1ccccc1Br : 5.73
CCS(=O)(=O)c1ccc(OC)c(Nc2nccc(N(C)c3ccc4c(C)n[nH]c4c3)n2)c1 : 3.13
COC(=O)c1ccc2c(c1)C(=Cc1cc(Br)c(O)c(Br)c1)C(=O)N2 : 6.29
CCn1c(-c2nonc2N)nc2ccc(F)cc21 : 41.4
NS(=O)(=O)c1ccc(NC=C2C(=O)Nc3ccc4ncsc4c32)cc1 : 61.7
Cc1ccc2c(-c3ccnc(Nc4ccc5c(c4)OCCO5)n3)c(-c3ccc(C(F)(F)F)cc3)nn2n1 : 2.42
O=C1Nc2ccc(-c3cccnc3)cc2C1=Cc1cc(Br)c(O)c(Br)c1 : 4.63
CN(C)C(=O)O[C@H]1CN[C@H](C#Cc2cc3ncnc(Nc4ccc(OCc5cccc(F)c5)c(Cl)c4)c3s2)C1 : 5.82
COc1cc2ncnc(Nc3ccc4c(cnn4Cc4ccccc4)c3)c2cc1OC : 0.7
C[C@@H](Oc1cc(-n2cnc3ccc(OCC4CCN(C)CC4)cc32)sc1C(N)=O)c1ccccc1C(F)(F)F : 0.31
CCOc1nccc2c1nc(-c1nonc1N)n2CC : 43.1
Cc1ccc2c(c1)/C(=N/Nc1ccc(S(N)(=O)=O)cc1)C(=O)N2 : 3.82
O=S(=O)(CCOCc1ccc(-c2ccc3ncnc(Nc4ccc(OCc5cccc(F)c5)c(Cl)c4)c3c2)o1)c1ccccc1 : 2.63
Cc1cc(O)cc(C)c1/C=C/c1cncc(C(=O)N(C)C)c1 : 3.78
Cc1nc(-c2ccccc2)n2nc(NCCCN3CCOCC3)ncc12 : 3.07
CCCN1CCCC(c2ccc(Nc3nc(Nc4cc(F)ccc4C(N)=O)c4cc[nH]c4n3)c(OC)c2)C1 (stereo not given) : 26.3
NC(=O)c1cccc(Nc2nccc(Nc3cccc(F)c3)n2)c1 : 0.47
COc1cccc(-n2nc(C)c3c(N/N=C(\C)c4ccncc4)ncnc32)c1 : -0.19
COC(=O)Nc1nc2cc(Oc3ccc(NC(=O)Nc4cccc(Br)c4)cc3)ccc2[nH]1 : 2.14
Cc1ccc(O)cc1Nc1ccnc2ccc(S(C)(=O)=O)cc12 : 4.03
ON=C1CCc2cc(-c3nc(C4CCNCC4)[nH]c3-c3ccncc3)ccc21 : 2.55
Nc1nccc(-c2c(-c3ccc(F)cc3)nn3cc(C(F)(F)F)ccc23)n1 : -0.08

====

- assayed target: Epidermal growth factor receptor (Homo sapiens) (UniProt P00533);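 also: values are mean inhibition figures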
- Sequence (P00533 whole entry): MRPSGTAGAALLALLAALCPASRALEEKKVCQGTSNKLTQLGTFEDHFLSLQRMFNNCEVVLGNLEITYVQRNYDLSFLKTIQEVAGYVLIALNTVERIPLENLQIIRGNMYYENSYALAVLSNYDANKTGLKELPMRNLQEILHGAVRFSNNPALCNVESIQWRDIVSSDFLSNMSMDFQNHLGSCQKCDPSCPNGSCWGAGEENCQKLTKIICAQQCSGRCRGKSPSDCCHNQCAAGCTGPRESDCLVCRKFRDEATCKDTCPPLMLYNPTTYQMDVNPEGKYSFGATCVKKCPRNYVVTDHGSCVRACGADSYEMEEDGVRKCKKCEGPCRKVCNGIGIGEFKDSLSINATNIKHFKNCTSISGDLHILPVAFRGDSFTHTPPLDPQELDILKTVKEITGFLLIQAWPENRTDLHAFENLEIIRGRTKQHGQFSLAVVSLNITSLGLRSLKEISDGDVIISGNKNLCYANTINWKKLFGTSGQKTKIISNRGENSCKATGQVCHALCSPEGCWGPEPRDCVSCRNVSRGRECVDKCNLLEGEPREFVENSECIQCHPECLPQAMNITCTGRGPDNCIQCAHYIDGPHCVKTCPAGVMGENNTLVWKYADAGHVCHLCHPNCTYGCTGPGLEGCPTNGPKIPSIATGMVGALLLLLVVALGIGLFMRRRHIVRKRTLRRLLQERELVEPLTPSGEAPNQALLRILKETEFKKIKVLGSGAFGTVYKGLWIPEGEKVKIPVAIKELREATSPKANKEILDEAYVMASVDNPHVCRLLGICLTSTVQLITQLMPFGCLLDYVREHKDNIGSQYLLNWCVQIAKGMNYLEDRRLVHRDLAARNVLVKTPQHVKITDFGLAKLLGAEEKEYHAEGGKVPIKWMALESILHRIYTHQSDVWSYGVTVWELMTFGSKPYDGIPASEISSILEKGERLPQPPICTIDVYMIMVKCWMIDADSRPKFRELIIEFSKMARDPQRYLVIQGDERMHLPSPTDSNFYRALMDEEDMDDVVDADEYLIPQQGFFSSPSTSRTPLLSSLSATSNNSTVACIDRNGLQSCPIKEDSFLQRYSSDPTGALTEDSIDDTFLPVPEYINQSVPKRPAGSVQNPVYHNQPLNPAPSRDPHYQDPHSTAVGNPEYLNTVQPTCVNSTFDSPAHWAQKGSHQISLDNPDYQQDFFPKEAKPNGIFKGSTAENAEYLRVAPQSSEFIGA
- measurement context: at 1 µM
Reported inhibition values for a set of molecules
measured parameter: inhibition

c1ccc(Cc2nc3ccc(Nc4ncnc5ccccc45)cc3[nH]2)cc1 : 67.2%
COc1cc2ncn(-c3cc(OCc4ccccc4S(C)(=O)=O)c(C#N)s3)c2cc1OC : 11.8%
N#Cc1cccc(Nc2nccc(-c3cnn4ncccc34)n2)c1 : 6.11%
CCS(=O)(=O)c1ccc(OC)c(Nc2nccc(N(C)c3ccc4c(C)n[nH]c4c3)n2)c1 : 35.2%
NS(=O)(=O)c1ccc(-c2cc3ccncc3cc2OCc2ccccc2)cc1 : 2.78%
COc1cccc(-n2nc(C)c3c(N/N=C(\C)c4ccncc4)ncnc32)c1 : 2.43%
C[C@@H](Oc1cc(-n2cnc3ccc(OC[C@@H](O)CO)cc32)sc1C(N)=O)c1ccccc1Cl : 2.04%

====

- assayed target: Protein-tyrosine kinase 6 (Homo sapiens) (UniProt Q13882)
- Sequence (Q13882 whole entry, looked up): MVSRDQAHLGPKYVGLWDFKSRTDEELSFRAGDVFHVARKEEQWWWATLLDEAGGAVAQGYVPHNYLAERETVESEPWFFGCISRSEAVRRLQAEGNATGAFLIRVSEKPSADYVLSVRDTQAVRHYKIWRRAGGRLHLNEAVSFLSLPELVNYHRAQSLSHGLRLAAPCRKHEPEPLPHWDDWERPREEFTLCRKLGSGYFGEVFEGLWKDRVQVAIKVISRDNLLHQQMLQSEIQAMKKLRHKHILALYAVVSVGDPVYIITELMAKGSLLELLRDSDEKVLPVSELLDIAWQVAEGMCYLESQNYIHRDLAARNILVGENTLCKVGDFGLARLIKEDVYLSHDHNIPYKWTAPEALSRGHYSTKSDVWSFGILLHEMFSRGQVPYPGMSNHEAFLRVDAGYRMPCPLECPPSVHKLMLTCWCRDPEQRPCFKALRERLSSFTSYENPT
- measurement context: at 0.1 µM
- Description: GSK_PKIS: BRK mean inhibition at 0.1 uM [Nanosyn]
# maps each entry to its inhibition
measured parameter: inhibition (%)

ON=C1CCc2cc(-c3nc(C4CCNCC4)[nH]c3-c3ccncc3)ccc21 : -0.84
[O-][S+]1CCN(Cc2ccc(-c3ccc4ncnc(Nc5ccc(OCc6ccccc6)c(Cl)c5)c4c3)o2)CC1 : 0.38
Cc1cc(-c2ccccn2)cc(C)c1/C=C/c1cncc(-c2nn[nH]n2)c1 : 9.43
CN1CCN(C(=O)c2ccc(NC(=O)Nc3ccc(N(C)c4ccnc(Nc5ccc(CS(C)(=O)=O)cc5)n4)cc3)cc2)CC1 : -1.96
COc1cc(/C=N/Nc2ncnc3c2cnn3C(C)C)ccc1O : 1.02

====

- assayed target: Cyclin-dependent kinase 2 (Homo sapiens) (UniProt P24941);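 also: mean inhibition of CDK2 in complex with cyclin E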
- measurement context: at 0.1 µM
Parameter: inhibition. Scope: all listed entries.
measured parameter: inhibition (%)

CN(C)c1cc2c(Nc3ccc4c(cnn4Cc4ccccc4)c3)ncnc2cn1 : 2.18
CN(C)C(=O)O[C@@H]1CN[C@@H](C#Cc2cc3ncnc(Nc4ccc(OCc5cccc(F)c5)c(Cl)c4)c3s2)C1 : 0.72
COC(=O)c1ccc2c(c1)C(=Cc1cc(Br)c(O)c(Br)c1)C(=O)N2 : 2.47
NS(=O)(=O)c1ccc(Nc2cc(-c3cccc(O)c3)n[nH]2)cc1 : 16.5
COc1ccc(-c2nn3ncccc3c2-c2ccnc(Nc3cccc(C(F)(F)F)c3)n2)cc1 : 2.35
Nc1nccc(-c2c(-c3ccc(F)cc3)nn3cc(C(F)(F)F)ccc23)n1 : -0.77
Cc1cc(-c2ccccn2)cc(C)c1/C=C/c1cncc(-c2nn[nH]n2)c1 : 3.02
CC(C)c1ccc(Nc2nccc(-c3cnn4ncccc34)n2)cc1 : 22.8
[O-][S+]1CCN(Cc2ccc(-c3ccc4ncnc(Nc5ccc(OCc6ccccc6)c(Cl)c5)c4c3)o2)CC1 : 0.43
ON=C1CCc2cc(-c3nc(C4CCNCC4)[nH]c3-c3ccncc3)ccc21 : 1.2
Cc1ccc(NC(=O)CC2CC2)cc1-c1ccc(C(=O)NCC2CC2)cc1 : 1.18
NC(=O)c1cccc(Nc2nccc(Nc3cccc(F)c3)n2)c1 : 0.92
Cc1ccc(O)cc1Nc1ccnc2ccc(S(C)(=O)=O)cc12 : 4.22
C[C@@H](Oc1cc(-n2cnc3ccc(OC[C@@H](O)CO)cc32)sc1C(N)=O)c1ccccc1Cl : -2.32
COc1ccc2ncnc(Nc3ccc(OCc4ccccc4)cc3)c2c1 : 0.4
O=C(Nc1ccc(Oc2ccc3[nH]c(NC(=O)c4ccco4)nc3c2)cc1)Nc1cc(C(F)(F)F)ccc1F : -4.34
NS(=O)(=O)c1cccc(-c2cc3ccncc3cc2OCc2ccccc2)c1 : 5.88
Cc1ccc(Nc2ccnc(Nc3cccc(C(N)=O)c3)n2)cc1O : -0.2
FC(F)(F)c1ccc(-c2nn3ncccc3c2-c2ccnc(Nc3ccc4c(c3)OCCO4)n2)cc1 : 5.4
CC(C)c1ccc2c(c1)NC(=O)/C2=N/Nc1ccc(S(N)(=O)=O)cc1 : 3.16
CCCN1CCCC(c2ccc(Nc3nc(Nc4cc(F)ccc4C(N)=O)c4cc[nH]c4n3)c(OC)c2)C1 (stereo unspecified) : 3.57

Hello, the source for this data is ChEMBL document CHEMBL1961873, in case you need it.
